# target.or.system: catalytic domain human MMP-14 (Homo sapiens)
# Construct: made in house
# method.notes: MMP-14 fluorogenic inhibition assay
# Assay type: biochemical
# test.parameters: read-out: Calculated Ki(nM) MMP-14
The following compounds are shown together with reported Ki values.
measurement.kind: Ki

>>> result("COC[C@@H](NC(=O)[C@@H](NC(=O)[C@H](CCCc1ccc(-c2cccc(OC)c2)c(C)c1)CC(=O)O)C(C)(C)C)c1ccccc1 [compound 9454]")
"35500 nM"
>>> result("CNC(=O)[C@@H](Cc1ccccc1)NC(=O)C(CC(C)C)[C@H](CSc1cccs1)C(=O)NO (stereo partly drawn) [compound 5719]")
"3.68 nM"
>>> result("Cc1cc(C2CCN(S(=O)(=O)C(C)(C)C(=O)NO)CC2)ccc1-c1cccc(OCCO)c1 [compound 9470]")
"1710 nM"

* * *

# target.or.system: catalytic domain human MMP-1 (Homo sapiens)
# Construct: made in house
# Sequence (P03956 100-269 limits assumed): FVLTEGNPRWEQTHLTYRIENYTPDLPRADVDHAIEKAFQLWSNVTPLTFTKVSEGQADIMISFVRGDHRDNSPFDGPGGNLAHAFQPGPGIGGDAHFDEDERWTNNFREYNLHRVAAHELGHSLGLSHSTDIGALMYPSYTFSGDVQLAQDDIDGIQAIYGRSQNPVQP
# method.notes: MMP-1 fluorogenic inhibition assay
# Type: biochemical
# test.parameters: * limited by compound solubility; read-out: Calculated Ki(nM) MMP-1
measurement.kind: Ki (nM)

>>> recorded_number("Cc1cc(C2CCN(S(=O)(=O)C(C)(C)C(=O)NO)CC2)ccc1-c1cccc(OCCO)c1")
1780

* * *

# target.or.system: catalytic domain of human MMP-2 (Homo sapiens, UniProt P08253)
# Sequence (P08253 with tags, fused parts or gaps DEL222-396 limits assumed): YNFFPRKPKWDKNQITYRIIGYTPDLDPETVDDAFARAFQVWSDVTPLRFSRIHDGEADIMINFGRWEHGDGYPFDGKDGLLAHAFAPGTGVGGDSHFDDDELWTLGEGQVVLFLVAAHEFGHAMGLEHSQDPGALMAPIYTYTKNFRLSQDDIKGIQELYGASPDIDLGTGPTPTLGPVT
# method.notes: MMP-2 fluorogenic inhibition assay
# Assay type: biochemical
# test.parameters: read-out: Calculated Ki(nM) MMP-2
measurement.kind: Ki

>>> result("Cc1cc(C2CCN(S(=O)(=O)C(C)(C)C(=O)NO)CC2)ccc1-c1cccc(OCCO)c1")
"269 nM"
>>> result("COC[C@@H](NC(=O)[C@@H](NC(=O)[C@H](CCCc1ccc(-c2cccc(OC)c2)c(C)c1)CC(=O)O)C(C)(C)C)c1ccccc1")
"35200 nM"

* * *

The following compounds are shown together with reported Ki values.
# target.or.system: catalytic domain of human MMP-3 (Homo sapiens, UniProt P08254)
# Construct: made in house
# Sequence (P08254 100-272 limits assumed): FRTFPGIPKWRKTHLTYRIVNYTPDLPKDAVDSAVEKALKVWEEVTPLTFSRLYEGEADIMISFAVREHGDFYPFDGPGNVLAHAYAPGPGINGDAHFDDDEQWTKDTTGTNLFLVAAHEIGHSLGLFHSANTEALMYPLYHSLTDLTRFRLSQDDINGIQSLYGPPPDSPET
# method.notes: MMP-3 fluorogenic inhibition assay
# Type: biochemical
# test.parameters: read-out: Calculated Ki(nM) MMP-3
measurement.kind: Ki (nM)

>>> recorded_number("Cc1cc(C2CCN(S(=O)(=O)C(C)(C)C(=O)NO)CC2)ccc1-c1cccc(OCCO)c1")
1
>>> recorded_number("COC[C@@H](NC(=O)[C@@H](NC(=O)[C@H](CCCc1ccc(-c2cccc(OC)c2)c(C)c1)CC(=O)O)C(C)(C)C)c1ccccc1")
44

* * *

The following molecules are shown together with reported Ki values.
# target.or.system: catalytic domain of human MMP-9 (Homo sapiens, UniProt P14780)
# Sequence (P14780 with tags, fused parts or gaps DEL216-390 limits assumed): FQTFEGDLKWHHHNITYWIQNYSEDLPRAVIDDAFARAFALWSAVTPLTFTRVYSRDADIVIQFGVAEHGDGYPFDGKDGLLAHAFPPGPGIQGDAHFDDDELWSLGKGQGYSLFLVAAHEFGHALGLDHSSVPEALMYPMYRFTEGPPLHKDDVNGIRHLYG
# method.notes: MMP-9 fluorogenic inhibition assay
# Format: biochemical
# test.parameters: read-out: Calculated Ki(nM) MMP-9
measurement.kind: Ki

>>> result("Cc1cc(C2CCN(S(=O)(=O)C(C)(C)C(=O)NO)CC2)ccc1-c1cccc(OCCO)c1 [compound 9470]")
"406 nM"
>>> result("CNC(=O)[C@@H](Cc1ccccc1)NC(=O)C(CC(C)C)[C@H](CSc1cccs1)C(=O)NO (stereo partly drawn) [compound 5719]")
"0.47 nM"
>>> result("COC[C@@H](NC(=O)[C@@H](NC(=O)[C@H](CCCc1ccc(-c2cccc(OC)c2)c(C)c1)CC(=O)O)C(C)(C)C)c1ccccc1 [compound 9454]")
"52400 nM"
